Below, each entry is listed with its recorded percentage of input antibody bound.
- system_under_test: T1, Cynomolgus monkey glycophorin A on Cynomolgus monkey red blood cells or red blood cell membranes (Cynomolgus monkey)
- T1 construct: whole, on cells; also called Cyno RBC; Cynomolgus monkey RBC membranes
- test_name: Fab on intact cyno RBC, unbound Fab by ELISA; 120 min after 200-fold dilution
# value in %; strip the unit string

Solved entries (count: 2):
- binder: "TPP-7793, affinity matured 6C12 Fab (Fab, V domains shown, Tested as Fab) VH: EVQLVQSGAEVKKPGASVKVSCKASGYTFTRYTIHWVRQAPGQGLEWMGYINPSSGYTRYNPKFKGRVTMTRDKSTSTAYMELRSLRSDDTAVYYCWTGTRDYWGQGTTVTVSS VL: DIQLTQSPSFLSASVGDRVTITCRASSSVSYIYWFQQKPGKAPKLLIYATSTLQSGVPSRFSGSGSGTEYTLTISSLQPEDFATYYCHQRNSFPYTFGQGTKLEIK"
  percentage of input antibody bound [%]: 46
- binder: "TPP-7796, affinity matured 6C12 Fab (Fab, V domains shown, Tested as Fab) VH: EVQLVQSGAEVKKPGASVKVSCKASGYTFTTYTIHWVRQAPGQGLEWMGYINPKSGWTRYNPKFKGRVTMTRDKSTSTAYMELRSLRSDDTAVYYCQTGTRDYWGQGTTVTVSS VL: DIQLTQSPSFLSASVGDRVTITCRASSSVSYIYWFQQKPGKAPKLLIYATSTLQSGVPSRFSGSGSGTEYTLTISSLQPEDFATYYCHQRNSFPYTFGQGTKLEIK"
  percentage of input antibody bound [%]: 0

Given item TPP-7795, affinity matured 6C12 Fab (Fab, V domains shown, Tested as Fab) VH: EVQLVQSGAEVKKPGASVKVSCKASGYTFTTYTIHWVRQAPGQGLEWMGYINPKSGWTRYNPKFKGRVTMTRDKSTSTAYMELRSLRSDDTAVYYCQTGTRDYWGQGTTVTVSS VL: DIQLTQSPSFLSASVGDRVTITCRASSSVSYIYWFQQKPGKAPKLLIYATSFLQSGVPSRFSGSGSGTEYTLTISSLQPEDFATYYCHQRNSFPYTFGQGTKLEIK , the value recorded as its percentage of input antibody bound is 22
